Data origin: patent US20050032873A1

molecular target: 5-HT1A receptor (Homo sapiens, UniProt P08908); assay: cAMP accumulation assay, 5-HT1A function; assay type: cell-based; conditions: in brackets after EC50 or IC50; read-out: 5-HT1A Function cAMP (Emax)
Sequence (P08908 whole entry): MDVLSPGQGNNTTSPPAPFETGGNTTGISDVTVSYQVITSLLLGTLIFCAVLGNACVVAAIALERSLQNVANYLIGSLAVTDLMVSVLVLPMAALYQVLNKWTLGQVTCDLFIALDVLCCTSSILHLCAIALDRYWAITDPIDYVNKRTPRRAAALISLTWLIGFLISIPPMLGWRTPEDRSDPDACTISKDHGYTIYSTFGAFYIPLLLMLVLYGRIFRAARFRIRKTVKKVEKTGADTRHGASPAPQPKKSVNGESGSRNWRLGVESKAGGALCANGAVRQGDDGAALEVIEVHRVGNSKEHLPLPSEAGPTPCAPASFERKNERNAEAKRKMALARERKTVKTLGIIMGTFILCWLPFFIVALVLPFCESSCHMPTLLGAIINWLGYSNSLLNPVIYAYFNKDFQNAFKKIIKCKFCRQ

Compound: NC(=O)c1ccc(F)c2c1CC(N(CCCCn1ccc3cc(F)ccc31)CC1CC1)CO2 (centres unmarked) [Compound 199]
Uom: %
Emax: 72
//
Compound: CCCN(CCCc1c[nH]c2c(OC)cccc12)C1COc2c(F)ccc(C(N)=O)c2C1 (centres unmarked) [Compound 100]
Uom: %
Emax: 87
//
Compound: CCCN(CCCc1c[nH]c2ccc(F)cc12)[C@H]1CCc2cccc(OC)c2C1 [Compound 47a]
Uom: %
Emax: 99
//
Compound: CCCN(CCCc1coc2ccccc12)C1COc2c(F)ccc(C(N)=O)c2C1 (centres unmarked) [Compound 20]
Uom: %
Emax: 88
//
Compound: CCN(CCCCc1c[nH]c2ccc(F)cc12)C1COc2cccc(OC)c2C1 (centres unmarked) [Compound 32]
Uom: %
Emax: 95
//
Compound: COc1cccc2c1CC(N(CCCc1c[nH]c3ccc(F)cc13)C(C)C)CO2 (centres unmarked) [Compound 40]
Uom: %
Emax: 0
//
Compound: O=C(NC1CC1)c1ccc(F)c2c1CC(N(CCCc1c[nH]c3ccc(F)cc13)C1CCC1)CO2 (centres unmarked) [Compound 64]
Uom: %
Emax: 0
//
Compound: CCCN(CC1CCc2[nH]c3ccc(F)cc3c2C1)[C@H]1COc2c(F)ccc(C(N)=O)c2C1 (single isomer, unassigned; (-)) [Compound 177a]
Uom: %
Emax: 0

====

target: cloned human 5-HT1A receptors (Homo sapiens, UniProt P08908); assay: 35S-GTPγS binding assay, 5-HT1A function; conditions: agonist potency
Measured Parameter: EC50 (nM)

Compound: CCCN(CCCc1c[nH]c2ccc(F)cc12)C1CCc2c(F)ccc(OC)c2C1 (stereo not shown) [Compound 51]
Value Measured: 15.3

Compound: CCCN(CCCc1c[nH]c2ccc(OC)cc12)C1COc2c(F)ccc(C(N)=O)c2C1 (stereo not shown) [Compound 106]
Value Measured: 53.1

Compound: CCN(CCCc1c[nH]c2c(Cl)cccc12)C1COc2c(F)ccc(C(N)=O)c2C1 (stereo not shown) [Compound 110]
Value Measured: 244

Compound: CCCN(CCCc1c[nH]c2ccc(F)cc12)C1COc2c(F)ccc(C(N)=O)c2C1 (stereo not shown) [Compound 2]
Value Measured: 168

Compound: CCCN(C(C)CCc1c[nH]c2ccc(C#N)cc12)C1COc2c(F)ccc(C(N)=O)c2C1 (single isomer, unassigned) [Compound 13b]
Value Measured: 1470

Compound: CCCN(CCCc1c[nH]c2ccc(F)cc12)[C@@H]1COc2c(F)ccc(OC)c2C1 [Compound 27]
Value Measured: 116

Compound: CCN(CCCc1coc2ccccc12)C1COc2cccc(OC)c2C1 (stereo not shown) [Compound 21]
Value Measured: 28.1

Compound: CNC(=O)c1cccc2c1CC(N(CCCc1c[nH]c3c(F)cc(F)cc13)C1CCC1)CO2 (stereo not shown) [Compound 138]
Value Measured: 43

Compound: CCN(CCCc1csc2ccccc12)C1COc2cccc(OC)c2C1 (stereo not shown) [Compound 18]
Value Measured: 232

Compound: CCCN(CCCc1c[nH]c2ccc(F)cc12)C1COc2cccc(C(N)=O)c2C1 (stereo not shown) [Compound 150]
Value Measured: 13

Compound: CCCN(CCCc1c[nH]c2ccc(F)cc12)[C@H]1CCc2cccc(OC)c2C1 [Compound 47a]
Value Measured: 5.6

Compound: COc1cccc2c1CC(N(CCCc1c[nH]c3ccc(F)cc13)CC1CC1)CO2 (stereo not shown) [Compound 37]
Value Measured: 146

Compound: CCCN(CCC(O)c1csc2ccc(F)cc12)C1COc2c(F)ccc(C(N)=O)c2C1 (stereo not shown) [Compound 17]
Value Measured: 93.3

Compound: CNC(=O)c1ccc(F)c2c1CC(NCCCCc1c[nH]c3ccc(F)cc13)CO2 (stereo not shown) [Compound 92]
Value Measured: 1170

Compound: CCCN(CCc1c[nH]c2ccc(F)cc12)C1CCc2cccc(OC)c2C1 (stereo not shown) [Compound 48]
Value Measured: 24

Compound: COc1cccc2c1CC(N(CCCc1c[nH]c3ccc(C#N)cc13)C1CCC1)CO2 (stereo not shown) [Compound 46]
Value Measured: 107

Compound: CCCN(C1COc2cccc(OC)c2C1)[C@H]1CC[C@H](c2c[nH]c3ccc(F)cc32)CC1 (relative stereo) [Compound 183]
Value Measured: 10000

Compound: COc1cccc2c1CC(N(C)CCCc1c[nH]c3ccc(F)cc13)CO2 (stereo not shown) [Compound 33]
Value Measured: 3.62

Compound: O=C(NC1CCC1)c1cccc2c1CC(N(CCCc1c[nH]c3c(F)cc(F)cc13)C1CCC1)CO2 (stereo not shown) [Compound 143]
Value Measured: 1390

Compound: CCN(CCCc1c[nH]c2c(OC)cccc12)C1COc2c(F)ccc(C(N)=O)c2C1 (stereo not shown) [Compound 101]
Value Measured: 103

Compound: COc1cccc2c1CC(N[C@H]1CC[C@H](c3c[nH]c4ccc(C#N)cc43)CC1)CO2 (relative stereo) [Compound 180b]
Value Measured: 925

Compound: COc1cccc2c(CCN(CC3CC3)C3COc4c(F)ccc(C(N)=O)c4C3)coc12 (stereo not shown) [Compound 160]
Value Measured: 1020

Compound: NC(=O)c1cccc2c1C[C@H](NCCCc1c[nH]c3ccc(F)cc13)CO2 [Compound 133a]
Value Measured: 5000

Compound: COc1cccc2c1CC(N[C@H]1CC[C@@H](c3c[nH]c4ccc(C#N)cc43)CC1)CO2 (relative stereo) [Compound 180a]
Value Measured: 4230

Compound: COc1cccc2c(CCCN(CC3CC3)C3COc4c(F)ccc(C(N)=O)c4C3)coc12 (stereo not shown) [Compound 165]
Value Measured: 211

Compound: CCCN(CCCc1c[nH]c2c(OC)cccc12)C1COc2c(F)ccc(C(N)=O)c2C1 (stereo not shown) [Compound 100]
Value Measured: 67.6

Compound: CCCN(CCCc1c[nH]c2ccccc12)C1CCc2cccc(OC)c2C1 (stereo not shown) [Compound 50]
Value Measured: 4

Compound: COc1cccc2c1CC(N[C@H]1CC[C@@H](c3c[nH]c4ccc(F)cc43)CC1)CO2 (relative stereo) [Compound 181a]
Value Measured: 40000

Compound: CCN(CCCc1c[nH]c2ccc(Cl)cc12)C1COc2c(F)ccc(C(N)=O)c2C1 (stereo not shown) [Compound 115]
Value Measured: 52.2

Compound: CCCN(CCCCc1c[nH]c2ccc(F)cc12)C1COc2c(C(N)=O)ccc(F)c2C1 (stereo not shown) [Compound 124]
Value Measured: 698

Compound: COC(=O)c1ccc(F)c2c1CC(N(CCCCc1c[nH]c3ccc(F)cc13)C1CCC1)CO2 (stereo not shown) [Compound 58]
Value Measured: 8020

Compound: NC(=O)c1cccc2c1CC(N(CCCc1c[nH]c3ccc(F)cc13)C1CCC1)CO2 (stereo not shown) [Compound 134]
Value Measured: 21.8

Compound: NC(=O)c1cccc2c1CC(N(CCCc1c[nH]c3ccc(F)cc13)C1CCC1)CO2 (single isomer, unassigned; (-)) [Compound 134a]
Value Measured: 66

Compound: COc1cccc2c1CC(N(CCCc1c[nH]c3ccc(C#N)cc13)CC1CC1)CO2 (stereo not shown) [Compound 45]
Value Measured: 56
